# ASSAY INFO: chemical genetic growth profiling, strain panel (AID 1159580);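 further: tested at 20 µM; growth read once vehicle control cultures reached saturation at 30 °C; 1 = growth at the plate median or of vehicle wells; lower values mean less growth of the strain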
# EXPERIMENTAL PARAMETERS: S. cerevisiae deletion strains, growth OD, locus YML016C, strain PPZ1, hits give low values
About 2,000 (36%) of roughly 5,500 compounds were called active. Roughly 18% stayed inconclusive and do not appear here. The list shows a part of the results.
METRIC NAME: normalized growth

Here are 3 molecules together with their reported answers.
# MOLECULE, RESULT
records = [
    ("O=c1c(O)c(-c2ccc(O)cc2O)oc2cc(O)cc(O)c12", "0.972 (inactive)"),
    ("CC1O[C@@H](Oc2c(-c3ccc(O)c(O)c3)oc3cc(O)cc(O)c3c2=O)[C@H](O)[C@H](O)[C@H]1O (some centres undefined)", "1 (inactive)"),
    ("NS(=O)(=O)c1cc(C2(O)NC(=O)c3ccccc32)ccc1Cl (centres undefined)", "1.01 (inactive)"),
]

Next:
Challenge: For the molecule `COc1ccc(-c2cc(=O)c3c(O)cc(O[C@@H]4O[C@H](CO[C@H]5O[C@H](C)[C@@H](O)[C@H](O)[C@@H]5O)[C@@H](O)[C@H](O)[C@H]4O)cc3o2)cc1O` , report normalized growth.
Response given: 0.994 (inactive)

###

# ASSAY INFO: chemical genetic growth profiling, strain panel (AID 1159580)
# EXPERIMENTAL PARAMETERS: S. cerevisiae deletion strains, growth OD, locus YGR078C, strain PAC10
Hit rate of the full screen: of about 5,500 compounds, about 2,000 (36%) were called active. Not shown: some 18% with an inconclusive outcome. Rule as the data show it: active = normalized growth mostly below about 0.91 (no sharp cut-off); inconclusive = no clear call, values can overlap the other calls; inactive = mostly above about 0.92. This is one part of the list.
Mark one answer only. Choices: active, inactive

Past entries and their recorded results:
# MOLECULE, ASSIGNED CATEGORY
records = [
    ("CC1(C)CCC(NC(=O)[C@@H](N)CCC(=O)O)CC1", "inactive"),
    ("O=C1NN=C2C3CC4CC12CC1(C3)C(=O)NN=C41", "inactive"),
    ("COc1ccc(-c2cc(=O)c3c(O)cc(O[C@@H]4O[C@H](CO[C@H]5O[C@H](C)[C@@H](O)[C@H](O)[C@@H]5O)[C@@H](O)[C@H](O)[C@H]4O)cc3o2)cc1O", "inactive"),
]

Challenge: Record lookup: outcome of this test for `Cc1cccc(/C=C/c2ccccc2)n1` ?
Response given: inactive

Challenge: Record lookup: outcome of this test for `COc1ccc(-c2oc3cc(O[C@H]4O[C@H](CO)[C@@H](O)[C@H](O)[C@H]4O)c(OC)c(O)c3c(=O)c2OC)cc1O` ?
Response given: inactive

Challenge: Record lookup: outcome of this test for `ON=C(c1cccs1)c1cccs1` ?
Response given: inactive

Challenge: Record lookup: outcome of this test for NC(=O)NCC(N)C(=O)O (stereo not given) ?
Response given: inactive

Challenge: Record lookup: outcome of this test for `CCOC(=O)NC1=C(C2CC2)C(=O)C(NC(=O)OCC)=C(C2CC2)C1=O` ?
Response given: inactive

Challenge: Record lookup: outcome of this test for `CSc1nsc(SC)c1C(=O)NC(=O)Nc1ccc(F)cc1F` ?
Response given: inactive

Challenge: Record lookup: outcome of this test for `Clc1ccc(C=C2c3ccccc3-c3ccccc32)cc1` ?
Response given: inactive

Challenge: Record lookup: outcome of this test for CC(COc1ccc(/C=C/c2ccccc2)cc1)[N+](C)(C)C (stereo not given) ?
Response given: inactive

Challenge: Record lookup: outcome of this test for `Cc1cc(C)c(/C=C2\C(=O)Nc3ccccc32)[nH]1` ?
Response given: inactive

Challenge: Record lookup: outcome of this test for `Cc1cc(I)c(C)cc1I` ?
Response given: inactive

Challenge: Record lookup: outcome of this test for O=C1C=C2C(=CCOC2O)O1 (stereo not given) ?
Response given: active

###

# ASSAY INFO: chemical genetic growth profiling, strain panel (AID 1159580);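 further: tested at 20 µM; growth read once vehicle control cultures reached saturation at 30 °C; 1 = growth at the plate median or of vehicle wells; lower values mean less growth of the strain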
# EXPERIMENTAL PARAMETERS: S. cerevisiae deletion strains, growth OD, locus YBR279W, strain paf1
About 2,000 (36%) of roughly 5,500 compounds were called active. Another 18% or so got no clear call; they are omitted. No stated cut-off is given here; in the data, active means normalized growth mostly below about 0.91 (no sharp cut-off); inconclusive means no clear call, values can overlap the other calls; inactive means mostly above about 0.92. This is one part of the list.
Mark one answer only. Choices: active, inactive

Past entries and their recorded results:
# MOLECULE, ASSIGNED CATEGORY
measured = [
    ("COc1cc(O)c2c(=O)c(O)c(-c3ccc(O)c(O)c3)oc2c1", "active"),
    ("CCCCCc1c2c(cc(O)c1C(=O)O)OC(=O)c1c(cc(OC)cc1C(=O)CCCC)O2", "inactive"),
    ("O=c1cc(-c2ccc(O)cc2)oc2cc(O[C@@H]3O[C@H](CO)[C@@H](O)[C@H](O)[C@H]3O)cc(O)c12", "inactive"),
    ("O=c1c(O)c(-c2ccc(O)cc2O)oc2cc(O)cc(O)c12", "inactive"),
    ("COc1cc(OC)c2c(=O)c(O)c(-c3ccc(OC)c(OC)c3)oc2c1", "active"),
    ("N#Cc1nn(-c2c(Cl)cc(C(F)(F)F)cc2Cl)c(N)c1S(=O)C(F)(F)F (configuration not stated)", "inactive"),
]

Challenge: Record lookup: outcome of this test for `O=c1ccc2c(O)c3ccoc3cc2o1` ?
Response given: inactive

Challenge: Record lookup: outcome of this test for `COC1=CC(=O)C(O)=C/C1=C\C=C\c1ccccc1` ?
Response given: active

Challenge: Record lookup: outcome of this test for `CCC(=O)c1c(O)cc(O)cc1O` ?
Response given: inactive

###

# ASSAY INFO: chemical genetic growth profiling, strain panel (AID 1159580);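 further: tested at 20 µM; growth read once vehicle control cultures reached saturation at 30 °C; 1 = growth at the plate median or of vehicle wells; lower values mean less growth of the strain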
# EXPERIMENTAL PARAMETERS: S. cerevisiae deletion strains, growth OD, locus YMR263W, strain SAP30, hits give low values
Out of some 5,500 compounds screened, about 2,000 (36%) were called active. About 18% were inconclusive and are not listed. The list shows a part of the results.
Below, each entry is listed alongside its reported normalized growth.
The answer should be written as a number, with no unit following it.

# COMPOUND, normalized growth
measured = [
    ("CCc1cccc(CC)c1N(COC)C(=O)CCl", 0.997),
    ("CC1(C)C2CC(=O)[C@]3(C)C(CC[C@@]4(C)[C@H](c5ccoc5)OC(=O)[C@H]5O[C@]543)[C@@]2(C)C(=O)C[C@H]1O (some centres undefined)", 1.04),
]

Challenge: For the compound `Cc1cc(Br)c(NC(=O)C(Cl)(Cl)Cl)c(Br)c1` , report normalized growth.
Response given: 0.96

Challenge: For the compound CC(COc1ccc(/C=C/c2ccccc2)cc1)[N+](C)(C)C (centres undefined) , report normalized growth.
Response given: 1.01

Challenge: For the compound CC1(C)C2CC(=O)[C@]3(C)C(CC[C@@]4(C)[C@H](c5ccoc5)OC(=O)C5OC543)[C@@]2(C)[C@@H](O)C[C@H]1O (some centres undefined) , report normalized growth.
Response given: 1.01

Challenge: For the compound `O=C1NC(=O)C(c2ccccc2[N+](=O)[O-])=C1Nc1ccc(O)c(Cl)c1` , report normalized growth.
Response given: 0.99

Challenge: For the compound CC(C)c1c(O)c(-c2cc3c(c(C(C)C)c2O)CCC2C(C)(C)CCC[C@]32C)cc2c1CCC1C(C)(C)CCC[C@]21C (some centres undefined) , report normalized growth.
Response given: 1.02

Challenge: For the compound COc1ccc2c(c1C(C)C)CCC1C(C)(C)C(=O)CCC21C (centres undefined) , report normalized growth.
Response given: 1.01

Challenge: For the compound CC(=O)O[C@@H]1CC2C(C)(C)C(=O)C=C[C@]2(C)C2CC[C@@]3(C)[C@H](c4ccoc4)OC(=O)[C@H]4O[C@]43[C@@]21C (some centres undefined) , report normalized growth.
Response given: 0.993

###

# ASSAY INFO: chemical genetic growth profiling, strain panel (AID 1159580);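 further: tested at 20 µM; growth read once vehicle control cultures reached saturation at 30 °C; 1 = growth at the plate median or of vehicle wells; lower values mean less growth of the strain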
# EXPERIMENTAL PARAMETERS: S. cerevisiae deletion strains, growth OD, locus YNL183C, strain NPR1, hits give low values
Screen size: about 5,500 compounds; about 2,000 (36%) were called active. Inconclusive results (about 18%) are left out. This is one part of the list.
METRIC NAME: normalized growth
The answer should be written as a number, with no unit following it.

Here are 3 molecules together with their reported answers.
# MOLECULE, normalized growth
data = [
    ("O=C1C(Cl)=C(Oc2cc(Cl)c(Cl)cc2Cl)C(=O)c2ccccc21", 0.128),
    ("CC(C)c1c(O)ccc2c1CCC1[C@@](C)(CO)CCC[C@]21C (stereo partly specified)", 0.994),
    ("COc1ccc(Cl)cc1C(=O)NCCc1ccc(S(=O)(=O)NC(=O)NC2CCCCC2)cc1", 0.947),
]

Challenge: For the molecule COC(=O)[C@@]1(C)CCC[C@]2(C)c3ccc(O)c(C(C)C)c3CCC12 (stereo partly specified) , report normalized growth.
Response given: 0.715

Challenge: For the molecule Oc1cc2c(cc1O)C1c3ccc(O)c(O)c3OCC1(O)C2 (stereo unspecified) , report normalized growth.
Response given: 0.907

Challenge: For the molecule `O=C(O)C1=C[C@@H](O)[C@@H](O)[C@H](O)C1` , report normalized growth.
Response given: 0.962
